# Target Under Test: full length SGK1 (Homo sapiens)
# Construct: 125 μM full length SGK1 (Life Technologies Part #PR7358A); purchased Life Technologies PR7358A
# Sequence (O00141 whole entry): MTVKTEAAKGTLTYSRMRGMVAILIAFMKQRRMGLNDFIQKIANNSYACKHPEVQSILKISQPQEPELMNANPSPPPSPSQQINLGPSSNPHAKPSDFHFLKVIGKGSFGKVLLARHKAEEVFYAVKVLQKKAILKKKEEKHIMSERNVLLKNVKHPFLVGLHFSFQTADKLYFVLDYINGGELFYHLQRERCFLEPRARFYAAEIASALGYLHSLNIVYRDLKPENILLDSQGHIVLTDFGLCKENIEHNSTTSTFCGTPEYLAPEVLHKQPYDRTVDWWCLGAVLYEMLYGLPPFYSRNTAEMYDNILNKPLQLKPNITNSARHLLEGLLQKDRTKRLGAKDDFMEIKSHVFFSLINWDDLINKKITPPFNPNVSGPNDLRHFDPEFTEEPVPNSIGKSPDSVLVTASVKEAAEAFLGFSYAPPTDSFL
# Run Description: SGK1 inhibition Assay A (Caliper LabChip electrophoretic separation of fluorescent peptide substrate and phosphorylated product)
# Type: biochemical
# Setup Conditions: Assay A; 20 μM ATP, 40 min incubation; read-out: SGK1 IC50
Entry class follows IC50: LOW: < 7 nM; MEDIUM: ≥ 7 nM and < 50 nM; HIGH: ≥ 50 nM

Molecule | Group Label
CC(=O)N1CC=C(c2cc(N3CCC[C@@H](NC(=O)c4cncc(N5CCN(C)CC5)n4)C3)c3c(N)ncnn23)C1 | MEDIUM
Nc1ncnn2c(-c3ccnc(C(F)F)c3)cc(N3CCC[C@@H](NC(=O)c4sc(Cl)cc4OC4CCNCC4)C3)c12 | LOW
Nc1ncnn2c(-c3ccnc(C(F)F)c3)cc(N3CCC[C@@H](NC(=O)c4sc(Cl)cc4OC4CNC4)C3)c12 | MEDIUM

Q. Category of "CC(=O)N1CC=C(c2cc(N3CCC[C@@H](NC(=O)c4cccc(N(C)C)c4)C3)c3c(N)ncnn23)C1" :
A. HIGH

Q. Category of "Cc1ccc(C(=O)N[C@@H]2CCCN(c3c(Cl)c(-c4ccc(S(C)(=O)=O)cc4)n4ncnc(N)c34)C2)s1" :
A. HIGH
